Where these numbers come from: PubChem BioAssay

Test system: XIP peptide (Xip251-270) binding
Test Name: XIP fragment 251-270 binding compounds – biochemical, small-molecule microarray, fluorescence 635/667 nm, 0.1 µg/mL protein, primary screen (AID 1182)
Condition Set: fluorescent protein binding, 635 nm, higher = more signal, called active from +8 up or from −8 down
Listing: composite z-score of selected molecules
Property Label: composite z-score

>  <Molecule>
CC(C)N1CC=CC23O[C@@H]4C=CCOC(=O)[C@@H]4[C@H]2C(=O)N(CCCCCCO)[C@@H]3C1=O (stereo partly specified)

>  <Readout Value>
-0.0725

$$$$
>  <Molecule>
COc1cc(C(O)C2C=CC3C(=O)N(C)C(=O)C3N2NC(=O)OC(C)(C)C)cc(OC)c1OC (stereo unspecified)

>  <Readout Value>
1.56

$$$$
>  <Molecule>
O=c1c2ccc(Br)cc2nc(-c2ccccc2)n1Cc1cccc(O)c1

>  <Readout Value>
0.0521

$$$$
>  <Molecule>
COc1ccccc1CN1C(=O)c2ccccc2[C@@]2(Cc3ccccc3N(C3CC3)C2=O)[C@@H]1c1ccc(CO)cc1

>  <Readout Value>
-0.0699

$$$$
>  <Molecule>
[N-]=[N+]=NCc1ccccc1[C@H]1OC(c2ccc(OCCCO)cc2)=N[C@@]1(Cc1ccccc1)C(N)=O

>  <Readout Value>
1.78

$$$$
>  <Molecule>
CCOC(=O)C[C@H]1[C@H](OC(=O)c2ccccc2-c2ccccc2)[C@@H](NC(=O)c2ccccc2)c2cc(OCCCO)ccc2N1C(=O)Cc1ccc(OC)cc1

>  <Readout Value>
-0.231

$$$$
>  <Molecule>
O=C1c2ccccc2[C@](Cc2ccccc2I)(C(=O)NC2CC2)[C@H](c2ccc(CO)cc2)N1Cc1ccccc1Cl

>  <Readout Value>
1.33

$$$$
>  <Molecule>
C=C(C(=O)CC[C@H](OC(=O)c1cccnc1)c1ccc(OCCO)cc1)C(C)C

>  <Readout Value>
0.538

$$$$
>  <Molecule>
CN1C(=O)C2C=CC(C(O)c3ccc(F)cc3)N(N3CCCCC3)C2C1=O (stereo unspecified)

>  <Readout Value>
0.612

$$$$
>  <Molecule>
CCOC(=O)C1=CC[C@@H](c2cccc(Br)c2)N(S(=O)(=O)c2ccc(C)cc2)[C@H]1c1ccc([N+](=O)[O-])cc1

>  <Readout Value>
0.422

$$$$
>  <Molecule>
O=C1OCCC=C[C@H]2OC34C=CCN(Cn5nnc6ccccc65)C(=O)[C@H]3N(CCCCCO)C(=O)[C@@H]4C12 (stereo partly specified)

>  <Readout Value>
0.282

$$$$
>  <Molecule>
CCCN1C(=O)[C@@]2(Cc3ccccc3)N=C(c3ccc(OCCCO)cc3)O[C@H]2c2ccccc21

>  <Readout Value>
1.19

$$$$
>  <Molecule>
O=C1N(CCS(=O)(=O)c2ccccc2)Cc2ccccc2C[C@@]12COC(c1ccc(OCCCO)cc1)=N2

>  <Readout Value>
0.913

$$$$
>  <Molecule>
COCCOC(=O)N1C(=O)[C@@]2(c3cc(C#CC4(O)CCCCCC4)ccc31)[C@H](C(=O)NC[C@H](O)c1ccccc1)[C@H]1C(=O)O[C@H](c3ccccc3)[C@H](c3ccccc3)N1[C@@H]2c1ccc(OCCO)cc1

>  <Readout Value>
-0.274

$$$$
>  <Molecule>
C[N+](C)(C)CCCCCCNC(=O)[C@@H]1C[C@@H]2C(=O)NCC(=O)N2[C@@H]1c1ccc(O)cc1

>  <Readout Value>
0.842

$$$$
>  <Molecule>
C#CCNS(=O)(=O)N(C)C

>  <Readout Value>
0.153

$$$$
